Listed next: entries and their corresponding % Remaining At T120.
System: balb/c mouse hepatocytes
measurementDescription: Hepatocyte stability, balb/c mouse
Assay type: in vitro ADME
testContext: 2 μM, 0.5 million cells/ml
Procedure: In this study, human, cynomolgus monkey, beagle dog, wistar hannover rat, and balb/c mouse hepatocyle stability was determined.
Structures can show the parent of a compound that is named as a salt.
measurementName: % Remaining At T120 (%)

compound=CNS(=O)(=O)Nc1cccc(Cc2c(CN(C)C)c3cc(F)c(OC(=O)N(C)C)cc3oc2=O)c1F observed=72.0
compound="CNS(=O)(=O)Nc1cccc(Cc2c(CN3CCNCC3)c3ccc(OC(=O)N(C)C)cc3oc2=O)c1Cl [Compound 246, hydrochloride]" observed=73.6
compound=CCN(C)Cc1c(Cc2cccc(NS(=O)(=O)NC)c2Cl)c(=O)oc2cc(OC(=O)N(C)C)ccc12 observed=52.8
compound=CCN(C)Cc1c(Cc2cccc(NS(=O)(=O)NC)c2F)c(=O)oc2cc(OC(=O)N(C)C)c(F)cc12 observed=57.3
